- PROCEDURE_DETAILS: SUPPLEMENTARY: Lipophilicity (log D) Determination by high-throughput shake-flask
- Assay type: physicochemical
- DETAILS: octanol/water
hey, just use Condition met if measured logD is less than 1, otherwise Condition not met

>  <STRUCTURE_STRING>
COc1ccc(Cl)cc1S(=O)(=O)N1CCCc2ccc(C(=O)Nc3ccc(C(=O)O)c(F)c3)cc21

>  <ANSWER_LABEL>
Condition met

$$$$
>  <STRUCTURE_STRING>
COc1ccc(Cl)cc1CN1C(=O)C(C)(C)c2ccc(C(=O)Nc3nc(CC(=O)O)cs3)cc21

>  <ANSWER_LABEL>
Condition not met

$$$$
>  <STRUCTURE_STRING>
O=C1CN(c2cccc(-c3n[nH]c([C@H]4CCCCN4C(=O)COc4ccccc4)n3)c2)C(=O)N1

>  <ANSWER_LABEL>
Condition not met

$$$$
>  <STRUCTURE_STRING>
O=C(O)Cc1ccc(NC(=O)c2ccc3c(c2)N(S(=O)(=O)c2cccc(Cl)c2)CC3)cc1

>  <ANSWER_LABEL>
Condition met

$$$$
>  <STRUCTURE_STRING>
O=C(COc1ccccc1)N1CCCC[C@@H]1c1nc(-c2cccc(B(O)O)c2)no1

>  <ANSWER_LABEL>
Condition not met

$$$$
>  <STRUCTURE_STRING>
CC(=O)NCc1cccc(-c2nc([C@H]3CCCCN3C(=O)COc3ccccc3)no2)c1

>  <ANSWER_LABEL>
Condition not met

$$$$
>  <STRUCTURE_STRING>
CC(=O)Nc1ccc(-c2noc([C@H]3CCCCN3C(=O)C#Cc3ccccc3)n2)cc1C(F)(F)F

>  <ANSWER_LABEL>
Condition not met

$$$$
>  <STRUCTURE_STRING>
O=C(COc1ccccc1)N1CCCC[C@@H]1c1nc(-c2ccccc2F)n[nH]1

>  <ANSWER_LABEL>
Condition not met

$$$$
>  <STRUCTURE_STRING>
O=C(COc1ccccc1)N1CCCC[C@@H]1c1nnn(-c2ccc3[nH]ccc3c2)n1

>  <ANSWER_LABEL>
Condition not met

$$$$
